Sourced from patent US20250074892A1

procedure-text: Rat PK&BBB (pharmacokinetics and brain penetration)
Type: in vivo, SD rats
test-settings: Sprague-Dawley, rat, whole blood, iv, 3 mg/kg, IV 3 mg/kg, 7 hr, read-out: Blood drug concentration
property: concentration at 7 h (ng/mL)

compound	property	measure-unit	endpoint-value
O=C(C1CCN(c2cc(-c3cc(OCCCO)ccc3F)ccn2)CC1)N1N=CC[C@H]1c1cc(F)cc(F)c1 (racemic)	concentration at 7 h	ng/mL	2.37

P = CC(C)(O)COc1ccc(F)c(-c2ccnc(N3CCC(C(=O)N4N=CC[C@H]4c4cc(F)cc(F)c4)CC3)c2)c1 (racemic)
Q = O=C(C1CCN(c2cc(-c3cc(OCCCO)ccc3F)ccn2)CC1)N1N=CCC1c1cc(F)cc(F)c1 (racemic)
Compare concentration at 7 h: is it lower for P or for Q ? // output: label of the selected item
Q
(Q: 0.927 ng/mL, P: 199 ng/mL)
